# test_system: Melanocortin receptor 5 (Homo sapiens)
# Sequence (P33032 whole entry): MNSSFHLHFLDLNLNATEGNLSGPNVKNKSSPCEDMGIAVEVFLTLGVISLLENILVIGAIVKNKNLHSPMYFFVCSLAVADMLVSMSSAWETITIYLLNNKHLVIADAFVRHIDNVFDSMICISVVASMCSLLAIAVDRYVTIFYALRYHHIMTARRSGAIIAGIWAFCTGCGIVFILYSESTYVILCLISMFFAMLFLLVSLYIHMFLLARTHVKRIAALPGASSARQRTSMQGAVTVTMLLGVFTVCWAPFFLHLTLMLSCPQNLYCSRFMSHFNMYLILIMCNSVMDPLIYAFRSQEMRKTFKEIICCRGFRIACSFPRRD
# method_summary: Agonist activity at human MC5R expressed in HEK2936E cells assessed as cAMP production in presence of IBMX by time resolved fluorescence assay
# Type: functional, cell-based
Record form. Attribute: pEC50. Fill in for each entry.
Answer with a bare number; do not write a unit.

Exercise: Any idea what its pEC50 is? The compound is "CC[C@H](C)[C@@H]1NC(=O)[C@@H]2CCCN2C(=O)[C@H](Cc2c[nH]c3ccccc23)NC(=O)[C@H](CCCNC(=N)N)N(C)C(=O)[C@H](Cc2ccccc2)NC(=O)[C@H](Cc2cnc[nH]2)NC(=O)[C@H]([C@@H](C)O)NC(=O)[C@H](NC(C)=O)CCSCc2cccc(c2)CSCC[C@H](C(N)=O)NC1=O"
Solution: 4.78

Exercise: Same again, this time with "CC[C@H](C)[C@@H]1NC(=O)[C@@H]2CCCN2C(=O)[C@H](Cc2c[nH]c3ccccc23)NC(=O)[C@H](CCCNC(=N)N)N(C)C(=O)[C@H](Cc2ccccc2)NC(=O)[C@H](Cc2cnc[nH]2)NC(=O)[C@H]([C@@H](C)O)NC(=O)[C@H](NC(C)=O)CCSCc2ccc(cc2)CSCC[C@H](C(N)=O)NC1=O"
Solution: 4.71

Exercise: Same again, this time with "CC[C@H](C)[C@@H]1NC(=O)[C@@H]2CCCN2C(=O)[C@H](Cc2c[nH]c3ccccc23)NC(=O)[C@H](CCCNC(=N)N)N(C)C(=O)[C@H](Cc2ccccc2)NC(=O)[C@H](Cc2cnc[nH]2)NC(=O)[C@H]([C@@H](C)O)NC(=O)[C@H](NC(C)=O)CCSCc2ccccc2CSCC[C@H](C(N)=O)NC1=O"
Solution: 4.82

====

Record form. Attribute: EC50. Fill in for each entry.
# test_system: Melanocyte-stimulating hormone receptor (Homo sapiens)
# Sequence (Q01726 whole entry): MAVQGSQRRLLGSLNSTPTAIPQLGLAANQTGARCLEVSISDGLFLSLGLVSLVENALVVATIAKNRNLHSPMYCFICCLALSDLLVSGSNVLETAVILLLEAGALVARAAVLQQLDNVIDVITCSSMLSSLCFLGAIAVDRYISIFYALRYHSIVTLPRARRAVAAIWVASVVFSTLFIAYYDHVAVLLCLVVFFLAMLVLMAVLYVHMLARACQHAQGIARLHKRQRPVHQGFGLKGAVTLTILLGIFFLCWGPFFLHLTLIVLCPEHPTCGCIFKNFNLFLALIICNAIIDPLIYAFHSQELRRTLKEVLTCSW
# method_summary: Agonist activity at human MC1R expressed in HEK2936E cells assessed as cAMP production in presence of IBMX by time resolved fluorescence assay
# Type: functional, cell-based
# experimental_parameters: read-out: pEC50 (converted)
*1 amine or outer side, *2 acyl side, *3 side chain or, on linkers, in order; H or OH if unused. Where a SMILES comes first, the peptide text is derived from it. Bridges are numbered along the chain shown (N, C = ends). [ ]: non-standard residue; d: D form. oXylylene = c1ccc(C[*:2])c(C[*:1])c1; NMeR = CN[C@@H](CCCNC(=N)N)C(=O)O; Nle = CCCC[C@H](N)C(=O)O

Exercise: Any idea what its EC50 is? The molecule is CCCC[C@@H]1NC(=O)[C@@H]2CSCc3ccccc3CSC[C@H](NC(=O)[C@H](CCCNC(=N)N)NC(=O)[C@H](CC(=O)O)NC(=O)[C@H](Cc3c[nH]c4ccccc34)NC(=O)[C@H](CCCNC(=N)N)NC(=O)[C@H](Cc3ccccc3)NC(=O)[C@H](Cc3cnc[nH]3)NC(=O)CNC1=O)C(=O)N[C@@H](Cc1cnc[nH]1)C(=O)N[C@@H](Cc1ccccc1)C(=O)N[C@@H](CCCNC(=N)N)C(=O)N[C@@H](Cc1c[nH]c3ccccc13)C(=O)N[C@@H](CCCNC(=N)N)C(=O)N2 (cyclo(CHFRWRC[Nle]GHFRWDR); linker 1-7 via oXylylene)
Solution: 0.195 nM

Exercise: Same again, this time with CC[C@H](C)[C@@H]1NC(=O)[C@@H]2CCCN2C(=O)[C@H](Cc2c[nH]c3ccccc23)NC(=O)[C@H](CCCNC(=N)N)N(C)C(=O)[C@H](Cc2ccccc2)NC(=O)[C@H](Cc2cnc[nH]2)NC(=O)[C@H]([C@@H](C)O)NC(=O)[C@@H](NC(C)=O)CSCc2ccccc2CSC[C@@H](C(N)=O)NC1=O (Ac-CTHF[NMeR]WPIC-NH2; linker 1-9 via oXylylene)
Solution: 1.86 nM

====

# test_system: UniProt P41968
# Sequence (P41968 whole entry): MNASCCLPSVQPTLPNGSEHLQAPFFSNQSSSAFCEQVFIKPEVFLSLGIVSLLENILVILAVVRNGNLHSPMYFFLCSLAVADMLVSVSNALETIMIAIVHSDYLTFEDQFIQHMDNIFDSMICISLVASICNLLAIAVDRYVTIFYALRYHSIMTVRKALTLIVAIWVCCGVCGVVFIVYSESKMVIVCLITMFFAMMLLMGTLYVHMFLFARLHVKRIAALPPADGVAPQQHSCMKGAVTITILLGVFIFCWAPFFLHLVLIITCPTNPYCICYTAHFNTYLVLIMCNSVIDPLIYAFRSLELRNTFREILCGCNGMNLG
# method_summary: Agonist activity at human MC3R expressed in HEK2936E cells assessed as cAMP production in presence of IBMX by time resolved fluorescence assay
reported_endpoint: EC50 (nM)
Numbers only; they are read as nM.

Exercise: Any idea what its EC50 is? The compound is "CCCC[C@@H]1NC(=O)[C@@H]2CSC/C(=N/OCC(=O)NCCOCCOCCOCCN=[N+]=[N-])CSC[C@H](NC(=O)[C@H](CCCNC(=N)N)NC(=O)[C@H](CC(=O)O)NC(=O)[C@H](Cc3c[nH]c4ccccc34)NC(=O)[C@H](CCCNC(=N)N)NC(=O)[C@H](Cc3ccccc3)NC(=O)[C@H](Cc3cnc[nH]3)NC(=O)CNC1=O)C(=O)N[C@@H](Cc1cnc[nH]1)C(=O)N[C@@H](Cc1ccccc1)C(=O)N[C@@H](CCCNC(=N)N)C(=O)N[C@@H](Cc1c[nH]c3ccccc13)C(=O)N[C@@H](CCCNC(=N)N)C(=O)N2"
Solution: 0.105

====

*1 amine or outer side, *2 acyl side, *3 side chain or, on linkers, in order; H or OH if unused. Where a SMILES comes first, the peptide text is derived from it. Bridges are numbered along the chain shown (N, C = ends). [ ]: non-standard residue; d: D form. X3 = NC(=O)/C(=C(\C(=O)O)[*:2])[*:1]; CH2COCH2 = O=C(C[*:1])C[*:2]; Nle = CCCC[C@H](N)C(=O)O
// endpoint Ki / system Melanocyte-stimulating hormone receptor (Homo sapiens, UniProt Q01726)
Numbers only; they are read as nM.

Exercise: Any idea what its Ki is? The compound is CCCC[C@@H]1NC(=O)[C@@H]2CS/C(C(=O)O)=C(/C(N)=O)SC[C@H](NC(=O)[C@H](CCCNC(=N)N)NC(=O)[C@H](CC(=O)O)NC(=O)[C@H](Cc3c[nH]c4ccccc34)NC(=O)[C@H](CCCNC(=N)N)NC(=O)[C@H](Cc3ccccc3)NC(=O)[C@H](Cc3cnc[nH]3)NC(=O)CNC1=O)C(=O)N[C@@H](Cc1cnc[nH]1)C(=O)N[C@@H](Cc1ccccc1)C(=O)N[C@@H](CCCNC(=N)N)C(=O)N[C@@H](Cc1c[nH]c3ccccc13)C(=O)N[C@@H](CCCNC(=N)N)C(=O)N2 (cyclo(CHFRWRC[Nle]GHFRWDR); linker 1-7 via X3)
Solution: 9.77

Exercise: Same again, this time with CCCC[C@@H]1NC(=O)[C@@H]2CSCC(=O)CSC[C@H](NC(=O)[C@H](CCCNC(=N)N)NC(=O)[C@H](CC(=O)O)NC(=O)[C@H](Cc3c[nH]c4ccccc34)NC(=O)[C@H](CCCNC(=N)N)NC(=O)[C@H](Cc3ccccc3)NC(=O)[C@H](Cc3cnc[nH]3)NC(=O)CNC1=O)C(=O)N[C@@H](Cc1cnc[nH]1)C(=O)N[C@@H](Cc1ccccc1)C(=O)N[C@@H](CCCNC(=N)N)C(=O)N[C@@H](Cc1c[nH]c3ccccc13)C(=O)N[C@@H](CCCNC(=N)N)C(=O)N2 (cyclo(CHFRWRC[Nle]GHFRWDR); linker 1-7 via CH2COCH2)
Solution: 2.09

====

# test_system: Melanocyte-stimulating hormone receptor (Homo sapiens)
# method_summary: Displacement of [125I]-NDP-alpha-MSH from human MC1R expressed in HEK2936E cell membrane measured after 16 to 23 hrs by 1450 microbeta trilux scintillation proximity assay
# Assay type: cell membranes
# experimental_parameters: hek2936e
reported_endpoint: pKi
Answer with a bare number; do not write a unit.

Exercise: Any idea what its pKi is? The compound is "CC[C@H](C)[C@@H]1NC(=O)[C@@H]2CCCN2C(=O)[C@H](Cc2c[nH]c3ccccc23)NC(=O)[C@H](CCCNC(=N)N)N(C)C(=O)[C@H](Cc2ccccc2)NC(=O)[C@H](Cc2cnc[nH]2)NC(=O)[C@H]([C@@H](C)O)NC(=O)[C@H](NC(C)=O)CCSCc2ccc(cc2)CSCC[C@H](C(N)=O)NC1=O"
Solution: 7

Exercise: Same again, this time with "CC[C@H](C)[C@@H]1NC(=O)[C@@H]2CCCN2C(=O)[C@H](Cc2c[nH]c3ccccc23)NC(=O)[C@H](CCCNC(=N)N)N(C)C(=O)[C@H](Cc2ccccc2)NC(=O)[C@H](Cc2cnc[nH]2)NC(=O)[C@H]([C@@H](C)O)NC(=O)[C@H](NC(C)=O)CCSCc2cccc(c2)CSCC[C@H](C(N)=O)NC1=O"
Solution: 7.31

Exercise: Same again, this time with "CC[C@H](C)[C@@H]1NC(=O)[C@@H]2CCCN2C(=O)[C@H](Cc2c[nH]c3ccccc23)NC(=O)[C@H](CCCNC(=N)N)N(C)C(=O)[C@H](Cc2ccccc2)NC(=O)[C@H](Cc2cnc[nH]2)NC(=O)[C@H]([C@@H](C)O)NC(=O)[C@H](NC(C)=O)CCSCc2ccccc2CSCC[C@H](C(N)=O)NC1=O"
Solution: 7.16

Exercise: Same again, this time with "CC[C@H](C)[C@@H]1NC(=O)[C@@H]2CCCN2C(=O)[C@H](Cc2c[nH]c3ccccc23)NC(=O)[C@H](CCCNC(=N)N)N(C)C(=O)[C@H](Cc2ccccc2)NC(=O)[C@H](Cc2cnc[nH]2)NC(=O)[C@H]([C@@H](C)O)NC(=O)[C@H](NC(C)=O)CCSSCC[C@H](C(N)=O)NC1=O"
Solution: 7.24

Values were extracted from ChEMBL document CHEMBL5104192.
